test system: Raji (Burkitt's Lymphoma); experiment: combination Emax (second highest fraction inhibited in the dose matrix, 72 h); higher = more inhibition; extreme values may be limits of the assay
Quick list: combination Emax per entry.
Just the number, please.

* Cn1cnc2c(F)c(Nc3ccc(Br)cc3Cl)c(C(=O)NOCCO)cc21 [Selumetinib] + C=CCn1c(=O)c2cnc(Nc3ccc(N4CCN(C)CC4)cc3)nc2n1-c1cccc(C(C)(C)O)n1 [AZD1775] (first compound max 10 µM, partner max 1 µM) | 0.681

# ---- query compound ----
Qu. Param item = CCN(CCO)CCCOc1ccc2c(Nc3cc(CC(=O)Nc4cccc(F)c4)[nH]n3)ncnc2c1 [AZD2811] + C=CCn1c(=O)c2cnc(Nc3ccc(N4CCN(C)CC4)cc3)nc2n1-c1cccc(C(C)(C)O)n1 [AZD1775] (first compound max 1 µM, partner max 1 µM) ; retrieve measured combination Emax.
Ans. 0.667

---

Each entry below carries its reported combination Emax.
tested on: NB1 (Neuroblastoma); assay: combination Emax (second highest fraction inhibited in the dose matrix, 72 h); higher = more inhibition; extreme values may be limits of the assay
Reply briefly: the number, and no unit.

- CC1(C)CCC(CN2CCN(c3ccc(C(=O)NS(=O)(=O)c4ccc(NCC5CCOCC5)c([N+](=O)[O-])c4)c(Oc4cnc5[nH]ccc5c4)c3)CC2)=C(c2ccc(Cl)cc2)C1 [Venetoclax] + Cc1cc2ncnn2cc1Nc1ncc2c(n1)n(C1CCOCC1)c(=O)n2C [AZD7648] (first compound max 1 µM, 7x7, partner max 10 µM): 0.561

Qu. Record request: combination Emax value, item COc1nnc2ccc(N3CCC(c4ccc(OCCN5CCN(C)C(=O)[C@H]5C)cc4)CC3)nn12 [AZD5153] + CC1(C)CCC(CN2CCN(c3ccc(C(=O)NS(=O)(=O)c4ccc(NCC5CCOCC5)c([N+](=O)[O-])c4)c(Oc4cnc5[nH]ccc5c4)c3)CC2)=C(c2ccc(Cl)cc2)C1 [Venetoclax] (first compound max 1 µM, 7x7, partner max 1 µM)
Ans. 0.232

Qu. Quick one: CC(=O)c1c(C)c2cnc(Nc3ccc(N4CCNCC4)cn3)nc2n(C2CCCC2)c1=O [Palbociclib] + CN(CC[C@H](CSC1=CC=CC=C1)NC2=C(C=C(C=C2)S(=O)(=O)NC(=O)C3=CC=C(C=C3)N4CCC(CC4)[C@H](C5=CC=CC=C5C6=CC=C(C=C6)Cl)O)S(=O)(=O)C(F)(F)F)CCO [AZD4320] (first compound max 10 µM, 7x7, partner max 1 µM)
Ans. 0.597

---

test system: P32-ISH (Burkitt's Lymphoma); assay: combination Emax (second highest fraction inhibited in the dose matrix, 72 h); higher = more inhibition; extreme values may be limits of the assay
Listed below: combination Emax values for each entry.
Output: the number by itself.

These solved cases illustrate the format of a correct answer.
- CC1(C)CCC(CN2CCN(c3ccc(C(=O)NS(=O)(=O)c4ccc(NCC5CCOCC5)c([N+](=O)[O-])c4)c(Oc4cnc5[nH]ccc5c4)c3)CC2)=C(c2ccc(Cl)cc2)C1 [Venetoclax] + Cc1cc2ncnn2cc1Nc1ncc2c(n1)n(C1CCOCC1)c(=O)n2C [AZD7648] (first compound max 1 µM, 7x7, partner max 10 µM): 0.0629
- CC1(C)CCC(CN2CCN(c3ccc(C(=O)NS(=O)(=O)c4ccc(NCC5CCOCC5)c([N+](=O)[O-])c4)c(Oc4cnc5[nH]ccc5c4)c3)CC2)=C(c2ccc(Cl)cc2)C1 [Venetoclax] + CN(C)CCCOc1ccc(-c2ccc3ncc4c(c3c2)n(C2CCOCC2)c(=O)n4C)cn1 [AZD0156] (first compound max 1 µM, 7x7, partner max 1 µM): 0.0131

Qu. Please give the measured combination Emax for this compound: C=CCn1c(=O)c2cnc(Nc3ccc(N4CCN(C)CC4)cc3)nc2n1-c1cccc(C(C)(C)O)n1 [AZD1775] + O=C(c1cc(Cc2n[nH]c(=O)c3ccccc23)ccc1F)N1CCN(C(=O)C2CC2)CC1 [Olaparib] (first compound max 1 µM, partner max 10 µM)
Ans. 0.997
